GI50 by entry:
Test system: UACC-62
ASSAY_PROTOCOL: NCI tumour cell line growth inhibition, 48 h
Calls of active or inactive are those of the source. Cut-off read from the data, not from the text of the source: active = GI50 up to about 1.1 µM and inactive = higher.

The following molecules have reported results that may help.
CCOCCOc1ccc(OCCOCC)cc1 ... 19 µM (inactive)
CN1CCN(c2n[nH]c(=O)c3c2nnn3C2CCCCC2)CC1 ... > 100 µM (inactive)
O=C(/C(=C/c1cccs1)c1ccccc1)c1ccccc1 ... > 100 µM (inactive)
COC(=O)c1ccccc1NC(=S)NN(C)C ... > 100 µM (inactive)
CC(=O)O[C@H]1C[C@@H](OC(C)=O)[C@@](C)(O)[C@@H]2[C@@H](OC(C)=O)[C@@]3(O)[C@H](/C=C(/CO)[C@H]4O[C@H]4[C@@H](OC(C)=O)[C@@]12C)OC(=O)[C@@H]3C ... 7.64 µM (inactive)

Request: Please look up its GI50: `COc1ccc([C@@H]2CC(=O)N2)cc1`
Result: > 100 µM (inactive)

Request: // returns reported GI50 for input `Cc1cccc2sc(NC(=O)NS(=O)(=O)n3cnc4ccccc43)nc12`
Result: 18.3 µM (inactive)

Request: Returns the measured GI50 for the input molecule. Input: Cc1c(Cl)ccc2c1NC(=O)C2(O)C1Cc2ccccc2C1=O (stereo not given)
Result: 72.6 µM (inactive)

Request: // GI50 lookup, key: `O=C(CNc1ccccc1[N+](=O)[O-])Nn1c(-c2ccccc2)nc2ccccc2c1=O`
Result: 10.7 µM (inactive)
